target: Dimeric Human Ang-2FD conjugated to human IgG1 (human); experiment: SPR, human IgG1 antibody captured
Sequence (chain, as listed by the source limits assumed): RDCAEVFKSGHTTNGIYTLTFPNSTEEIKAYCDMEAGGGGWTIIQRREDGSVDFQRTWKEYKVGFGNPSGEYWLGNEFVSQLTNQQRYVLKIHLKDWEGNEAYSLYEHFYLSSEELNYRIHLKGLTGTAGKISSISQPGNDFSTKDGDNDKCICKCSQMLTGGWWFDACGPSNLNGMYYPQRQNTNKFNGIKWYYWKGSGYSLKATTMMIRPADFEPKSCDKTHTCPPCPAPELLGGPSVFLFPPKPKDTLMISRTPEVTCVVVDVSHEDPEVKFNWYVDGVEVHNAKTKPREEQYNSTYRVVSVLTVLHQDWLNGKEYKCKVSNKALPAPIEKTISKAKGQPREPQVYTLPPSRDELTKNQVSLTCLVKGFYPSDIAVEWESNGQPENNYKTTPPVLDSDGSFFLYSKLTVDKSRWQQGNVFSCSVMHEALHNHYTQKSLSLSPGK
recorded metric: pKd
Field pKd (float): negative decimal logarithm of the concentration in molar.

Prompt: For the binder H1H724N (antibody, V domains shown) VH: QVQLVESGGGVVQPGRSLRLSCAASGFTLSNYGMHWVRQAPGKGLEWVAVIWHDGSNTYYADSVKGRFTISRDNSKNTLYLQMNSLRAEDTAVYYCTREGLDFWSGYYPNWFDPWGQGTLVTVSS VL: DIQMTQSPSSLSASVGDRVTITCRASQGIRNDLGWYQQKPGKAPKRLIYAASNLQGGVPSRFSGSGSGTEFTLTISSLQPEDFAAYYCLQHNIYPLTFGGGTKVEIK , what pKd is on record?
Response: 9.94
